remaining activity (%): recorded values
Molecular target: MMP-2 (Homo sapiens)
Construct: purchased Sino Biological 10082-HNAH
Sequence (P08253 110-660): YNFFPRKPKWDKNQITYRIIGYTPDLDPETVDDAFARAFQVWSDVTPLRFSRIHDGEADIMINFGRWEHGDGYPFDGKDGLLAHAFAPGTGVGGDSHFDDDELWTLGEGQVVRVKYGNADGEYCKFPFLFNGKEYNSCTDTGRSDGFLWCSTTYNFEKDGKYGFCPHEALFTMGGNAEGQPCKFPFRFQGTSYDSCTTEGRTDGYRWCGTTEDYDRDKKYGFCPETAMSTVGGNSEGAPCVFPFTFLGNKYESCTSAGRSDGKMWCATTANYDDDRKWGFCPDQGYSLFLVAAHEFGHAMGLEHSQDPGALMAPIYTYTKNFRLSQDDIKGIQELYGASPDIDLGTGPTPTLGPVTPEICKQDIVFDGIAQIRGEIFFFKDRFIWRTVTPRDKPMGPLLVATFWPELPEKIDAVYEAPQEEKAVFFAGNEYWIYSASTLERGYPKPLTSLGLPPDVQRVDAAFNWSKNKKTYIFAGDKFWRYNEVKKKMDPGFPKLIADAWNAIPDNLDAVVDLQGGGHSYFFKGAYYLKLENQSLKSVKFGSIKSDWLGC
Assay: MMP-2 inhibition assay (fluorogenic peptide substrate)
Format: biochemical
Details: MMP-2; concentration 48.76 µM
Write the value as a bare number.

Examples with answers:
{"columns": ["molecule", "remaining activity (%)"],
 "data": [
  ["Cc1cc(=O)[nH]c(-n2nc(C)c(CCC(=O)NCCCCCCCCNC(=O)CCC(=O)NCc3c[nH]nn3)c2C)n1 [693+787 Linker 4]", 72.64],
  ["O=C(CCC(=O)NCc1c[nH]nn1)NCCOCCOCCNC(=O)Cn1cnc2c(oc3ccccc32)c1=O [182+787 Linker 10]", 78.57],
  ["Cc1cc(=O)[nH]c(-n2nc(C)c(CCC(=O)NCCOCCOCCNC(=O)c3cncc(O)c3)c2C)n1 [693+828 Linker 10]", 85.76],
  ["O=C(CNC(=O)NC12CC3CC(CC(C3)C1)C2)NCc1c[nH]nn1 [66+787 Linker 1]", 89.24],
  ["O=C(CNC(=O)NC12CC3CC(CC(C3)C1)C2)NCCSCC(=O)NCc1c[nH]nn1 [66+787 Linker 24]", 87.86]
]}

Checklist item: remaining activity (%) tested on MMP-2 (Homo sapiens), entry Cc1cc(=O)[nH]c(-n2nc(C)c(CCC(=O)NCCNC(=O)CSCCNC(=O)c3cncc(O)c3)c2C)n1 [693+828 Linker 24] , value?
53.90

Another molecule: Cc1cc(=O)[nH]c(-n2nc(C)c(CCC(=O)NCCCCCCCCNC(=O)c3cncc(O)c3)c2C)n1 [693+828 Linker 4]
87.56
